# target entity: Glycogen synthase kinase-3 beta (Homo sapiens)
# Sequence (P49841 whole entry): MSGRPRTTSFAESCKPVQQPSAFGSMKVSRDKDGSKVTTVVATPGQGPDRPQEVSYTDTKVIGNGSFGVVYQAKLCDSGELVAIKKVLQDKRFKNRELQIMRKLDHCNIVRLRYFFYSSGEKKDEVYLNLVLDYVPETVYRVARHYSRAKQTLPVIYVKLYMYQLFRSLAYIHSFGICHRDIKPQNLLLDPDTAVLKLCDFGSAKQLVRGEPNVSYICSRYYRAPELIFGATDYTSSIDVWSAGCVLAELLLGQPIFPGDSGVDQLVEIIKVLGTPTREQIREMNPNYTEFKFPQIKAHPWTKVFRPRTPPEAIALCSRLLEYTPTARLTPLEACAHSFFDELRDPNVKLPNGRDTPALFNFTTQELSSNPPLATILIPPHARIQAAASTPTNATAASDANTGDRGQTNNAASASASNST
measure: IC50 (nM)

>>> reading("CN1CC=C(c2c(O)cc(O)c3c(=O)cc(-c4ccc(Sc5nc(-c6ccccc6)c[nH]5)cc4)oc23)CC1")
356

* * *

# target entity: CDK2/Cyclin A2 (Homo sapiens)
# method notes: Inhibition of human CDK2/cyclin A in presence of ATP by ADP-glo luminescent assay
measure: IC50

>>> reading("CN1CC=C(c2c(O)cc(O)c3c(=O)cc(-c4ccc(Sc5nc(-c6ccccc6)c[nH]5)cc4)oc23)CC1")
"0.469 µM"
>>> reading("CN1CC=C(c2c(O)cc(O)c3c(=O)cc(-c4ccc(Sc5nc6ccccc6n5C)cc4)oc23)CC1")
"0.349 µM"
>>> reading("CN1CC=C(c2c(O)cc(O)c3c(=O)cc(-c4ccc(Sc5nc6ccccc6n5C)cc4Cl)oc23)CC1")
"1.73 µM"
>>> reading("CN1CC=C(c2c(O)cc(O)c3c(=O)cc(-c4ccc(Sc5nc6ccccc6[nH]5)cc4)oc23)CC1")
"0.162 µM"
>>> reading("CN1CC=C(c2c(O)cc(O)c3c(=O)cc(-c4ccc(Sc5nc6ccccc6[nH]5)cc4Cl)oc23)CC1")
"1.56 µM"

* * *

Items are presented alongside their recorded Activity.
# Species: Sus scrofa
# method notes: Inhibition of porcine CK1delta/epsilon assessed as residual activity at 1 uM in presence of ATP by ADP-glo luminescent assay relative to control
measure: Activity (%)

>>> reading("CN1CC=C(c2c(O)cc(O)c3c(=O)cc(-c4ccc(Sc5nc6ccccc6n5C)cc4Cl)oc23)CC1")
90
>>> reading("CN1CC=C(c2c(O)cc(O)c3c(=O)cc(-c4ccc(Sc5nc6ccccc6[nH]5)cc4Cl)oc23)CC1")
86
>>> reading("CN1CC=C(c2c(O)cc(O)c3c(=O)cc(-c4ccc(Sc5nc6ccccc6[nH]5)cc4)oc23)CC1")
91
>>> reading("CN1CC=C(c2c(O)cc(O)c3c(=O)cc(-c4ccc(Sc5nc(-c6ccccc6)c[nH]5)cc4)oc23)CC1")
78
>>> reading("CN1CC=C(c2c(O)cc(O)c3c(=O)cc(-c4ccc(Sc5nc6ccccc6n5C)cc4)oc23)CC1")
83

* * *

# target entity: Cyclin-dependent kinase 5/CDK5 activator 1 (Homo sapiens) (UniProt Q00535+Q15078)
# Sequence (Q00535 whole entry): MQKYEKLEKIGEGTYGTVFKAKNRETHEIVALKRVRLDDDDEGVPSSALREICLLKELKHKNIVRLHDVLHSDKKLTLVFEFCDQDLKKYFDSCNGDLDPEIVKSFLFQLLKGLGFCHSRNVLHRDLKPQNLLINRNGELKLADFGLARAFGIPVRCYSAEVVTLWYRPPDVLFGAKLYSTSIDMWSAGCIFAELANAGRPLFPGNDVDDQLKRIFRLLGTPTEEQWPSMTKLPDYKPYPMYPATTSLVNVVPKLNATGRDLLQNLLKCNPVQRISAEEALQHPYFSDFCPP
# Sequence (Q15078 99-307 partner limits assumed): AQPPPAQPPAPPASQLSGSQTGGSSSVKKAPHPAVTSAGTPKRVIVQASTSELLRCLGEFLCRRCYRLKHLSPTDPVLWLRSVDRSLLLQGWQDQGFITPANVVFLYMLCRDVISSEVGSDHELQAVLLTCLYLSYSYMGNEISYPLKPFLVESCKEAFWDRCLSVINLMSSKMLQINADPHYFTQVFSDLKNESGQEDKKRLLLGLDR
# method notes: Inhibition of human CDK5/p25 assessed as residual activity at 10 uM in presence of ATP by ADP-glo luminescent assay relative to control
# Format: protein-complex assay
Response field label takes Met when Activity is strictly below 10% and Not met in all other cases.

>>> label_value("CN1CC[C@H](c2c(O)cc(O)c3c(=O)cc(-c4ccccc4Cl)oc23)[C@H](O)C1 [ALVOCIDIB]")
"Not met"
>>> label_value("CN1CC=C(c2c(O)cc(O)c3c(=O)cc(-c4ccc(Sc5nc6ccccc6n5C)cc4)oc23)CC1")
"Not met"
>>> label_value("CN1CC=C(c2c(O)cc(O)c3c(=O)cc(-c4ccc(Sc5nc6ccccc6[nH]5)cc4)oc23)CC1")
"Met"
>>> label_value("CN1CC=C(c2c(O)cc(O)c3c(=O)cc(-c4ccc(Sc5nc(-c6ccccc6)c[nH]5)cc4)oc23)CC1")
"Met"
>>> label_value("CN1CC=C(c2c(O)cc(O)c3c(=O)cc(-c4ccc(Sc5nc6ccccc6n5C)cc4Cl)oc23)CC1")
"Not met"
>>> label_value("CN1CC=C(c2c(O)cc(O)c3c(=O)cc(-c4ccc(Sc5nc6ccccc6[nH]5)cc4Cl)oc23)CC1")
"Not met"
